Recorded values, source patent US20190367619A1.

TARGET OR TEST SYSTEM: T1, human galectin-10-His (recombinant human galectin-10 with TEV-cleavable N-terminal His-tag) (human)
T1 construct: SEC-MALLS: dimer in solution; also called Gal10-His; humanGal10-His
T1 chain: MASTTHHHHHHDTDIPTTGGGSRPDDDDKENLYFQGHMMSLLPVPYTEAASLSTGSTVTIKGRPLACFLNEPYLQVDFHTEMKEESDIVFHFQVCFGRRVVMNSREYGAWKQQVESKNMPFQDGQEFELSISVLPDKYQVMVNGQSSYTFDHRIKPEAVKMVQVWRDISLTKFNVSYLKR
ASSAY OVERVIEW: BLI tandem on galectin-10-His; buffer in place of the saturating antibody
Entries and their measured binding signal (nm) follow.
Write the number in nm without appending the unit.

Suppose we examine the binder 6F06 mouse IgG1 (antibody, V domains shown, also called 6F06 mIgG1) VH: QVQLVESGGGLVQPGGSLRLSCAASEFTFSRYSMSWVRQAPGKGLEWVSTINSGGGSTSYVDSVKGRFTISRDNAKNTLYLQMNSLKPEDTAVYYCTKSQGGISFSTQYGMDYWGKGTLVTVSS VL: NFMLTQPSAVSVSLGQTARITCQGGNFGRYYANWYQQKPGQAPVLVIYKDSERPSGIPERFSGSSSGDTATLTISGAQAEDESDYYCQSGSVSDNAVFGGGTHLAVL ; what binding signal (nm) value has been reported?
1.22

Next record, please: 6A08 mouse IgG1 (antibody, V domains shown, also called 6A08 mIgG1) VH: QVQLVESGGGLVQPGGSLRLSCAASGFTFSSYAMSWVRQAPGKGPEWVSAINRGGGSTYYADSVKGRFTISRDNAKNTLYLQMNSLKPEDAAVYYCATPGDRLWYYRYDYWGQGAQVTVSS VL: QTVVTQEPSLSVSPGGTVTLTCGLSSGSVTSSNYPGWYQQTPGQAPRLLIYNTNSRYSGVPNRFSGSISGNKAALIISGAQPEDEADYHCALNRVRGTYRVFGGGTHLTVL
1.08

2C07 mouse IgG1 (antibody, V domains shown, VH on mouse IgG1 heavy chain constant domains (CH1-CH2-CH3), VL on mouse lambda light chain constant domain; also called 2C07 mIgG1) VH: ELQLVESGGGLVQPGGSLRLSCAASGFTFSSYAMSWVRQAPGKGLEWVSNINSGGGSTGYADSVKGRFTISRDNAKNTLYLQMNSLKPEDMAVYYCAKYLRTYYPNAAFGMDYWGKGTLVTVSS VL: QAVLTQPSAVSVSLGQTARITCQGGNFGRYYASWYQQKPGQAPVLVIYRDSERPSGIPERFSGSSSGDTATLTISGAQAEDEADYYCQSGRSSDNAVFGGGTHLTGL , same question.
0.8

More entries:
Would you kindly share the measured binding signal (nm) for 6B06 mouse IgG1 (antibody, V domains shown, also called 6B06 mIgG1) VH: QVQRQESGPGLVKPSQTLSLTCTVSGGSITTNYYSWSWIRQPPGKGLEWIGYIAYSGSTSYSPSLKSRTSISRDTSNNQFSLQLSSVTPEDTAVYYCARSRSSPTTFGMDYWGKGTLVTVSS VL: SSALTQPSAVSVSLGQTARITCQGGNFGRYYVSWYTQKPGQAPVLVIYQDSERPTGIPERFSGSSSGDTATLTISGAQAEDEADYYCQSGTSSDNIVFGGGTHLTVL ?
0.98
